Molecular target: α1G T-type Ca2+ currents (Homo sapiens, UniProt O43497)
Sequence (O43497 whole entry): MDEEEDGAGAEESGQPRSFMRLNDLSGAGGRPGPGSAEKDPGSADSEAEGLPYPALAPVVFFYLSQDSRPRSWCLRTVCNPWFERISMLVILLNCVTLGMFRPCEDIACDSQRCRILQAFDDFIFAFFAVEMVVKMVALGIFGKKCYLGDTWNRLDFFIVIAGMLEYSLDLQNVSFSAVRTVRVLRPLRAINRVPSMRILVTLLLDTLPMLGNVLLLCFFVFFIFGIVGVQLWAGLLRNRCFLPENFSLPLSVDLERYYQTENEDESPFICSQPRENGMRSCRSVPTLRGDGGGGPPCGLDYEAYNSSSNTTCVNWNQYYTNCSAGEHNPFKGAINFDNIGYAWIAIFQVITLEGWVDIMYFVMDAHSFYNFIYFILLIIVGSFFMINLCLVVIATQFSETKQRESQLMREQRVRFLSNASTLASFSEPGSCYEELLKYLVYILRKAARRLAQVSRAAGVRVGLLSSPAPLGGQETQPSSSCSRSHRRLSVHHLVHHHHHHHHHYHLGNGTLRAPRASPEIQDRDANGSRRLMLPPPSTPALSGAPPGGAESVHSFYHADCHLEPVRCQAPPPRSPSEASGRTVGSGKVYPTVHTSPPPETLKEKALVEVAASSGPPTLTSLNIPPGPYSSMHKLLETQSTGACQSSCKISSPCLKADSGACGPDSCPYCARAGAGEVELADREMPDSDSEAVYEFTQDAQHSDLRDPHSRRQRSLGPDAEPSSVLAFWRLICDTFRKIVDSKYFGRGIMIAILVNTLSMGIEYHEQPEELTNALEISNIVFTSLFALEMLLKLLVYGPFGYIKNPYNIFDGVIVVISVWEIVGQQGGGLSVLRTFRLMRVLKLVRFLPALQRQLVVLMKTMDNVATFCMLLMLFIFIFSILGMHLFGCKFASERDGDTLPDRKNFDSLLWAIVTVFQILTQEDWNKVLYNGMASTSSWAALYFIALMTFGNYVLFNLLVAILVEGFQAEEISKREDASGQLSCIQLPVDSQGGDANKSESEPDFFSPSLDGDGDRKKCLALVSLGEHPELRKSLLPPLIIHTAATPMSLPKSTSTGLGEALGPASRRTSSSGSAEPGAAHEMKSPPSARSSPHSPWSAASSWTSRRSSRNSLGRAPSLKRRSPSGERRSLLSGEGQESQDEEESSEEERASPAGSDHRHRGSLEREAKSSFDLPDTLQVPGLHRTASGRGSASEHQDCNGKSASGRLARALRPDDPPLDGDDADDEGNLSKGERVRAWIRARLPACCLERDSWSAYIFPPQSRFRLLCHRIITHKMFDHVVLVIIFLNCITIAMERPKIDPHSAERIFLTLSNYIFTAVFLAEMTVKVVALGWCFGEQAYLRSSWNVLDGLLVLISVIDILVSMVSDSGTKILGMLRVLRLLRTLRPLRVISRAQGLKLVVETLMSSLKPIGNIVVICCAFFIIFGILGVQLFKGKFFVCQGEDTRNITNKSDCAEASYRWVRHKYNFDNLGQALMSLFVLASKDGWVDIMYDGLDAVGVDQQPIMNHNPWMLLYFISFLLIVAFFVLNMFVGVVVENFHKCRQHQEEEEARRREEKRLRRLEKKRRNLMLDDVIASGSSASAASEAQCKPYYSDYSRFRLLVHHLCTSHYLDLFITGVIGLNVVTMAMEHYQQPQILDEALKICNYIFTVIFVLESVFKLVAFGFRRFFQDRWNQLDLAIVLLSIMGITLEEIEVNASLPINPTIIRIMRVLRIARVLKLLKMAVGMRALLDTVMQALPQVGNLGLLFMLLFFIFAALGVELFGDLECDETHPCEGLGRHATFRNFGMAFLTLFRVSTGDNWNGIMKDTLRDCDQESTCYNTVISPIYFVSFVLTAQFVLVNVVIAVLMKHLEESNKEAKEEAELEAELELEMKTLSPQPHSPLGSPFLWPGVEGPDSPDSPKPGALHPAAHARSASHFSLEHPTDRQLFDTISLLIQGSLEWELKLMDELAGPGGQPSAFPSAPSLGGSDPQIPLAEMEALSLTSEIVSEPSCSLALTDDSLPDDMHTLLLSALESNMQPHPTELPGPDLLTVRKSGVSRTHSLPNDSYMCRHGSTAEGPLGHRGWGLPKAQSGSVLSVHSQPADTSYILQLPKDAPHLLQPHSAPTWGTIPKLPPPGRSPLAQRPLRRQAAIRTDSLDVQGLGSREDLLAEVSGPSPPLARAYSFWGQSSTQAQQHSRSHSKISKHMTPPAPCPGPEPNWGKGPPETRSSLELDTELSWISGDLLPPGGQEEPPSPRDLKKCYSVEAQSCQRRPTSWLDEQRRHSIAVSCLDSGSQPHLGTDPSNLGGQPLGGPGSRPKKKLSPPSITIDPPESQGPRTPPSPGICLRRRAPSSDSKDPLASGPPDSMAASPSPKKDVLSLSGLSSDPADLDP
Assay: Electrophysiological whole cell patch clamp method in HEK293 cell
Details: peak current, step to −30 mV, read-out: Activity (IC50) against T-type calcium channel
attribute-measured: pIC50
On this scale, pIC50 is minus log10 of a concentration expressed in M (mol/L).

Examples with their reported pIC50 follow.
                                   molecule  result_value
0  O=C(NCCN1CCCCC1)c1ccc2c(c1)C(=O)N(Cc1ccc(Cl)cc1)C2=O          6.02
1  Cc1cccc(CN2C(=O)c3ccc(C(=O)NCCN4CCCCC4)cc3C2=O)c1          5.71
2  O=C(NCCN1CCCCC1)c1ccc2c(c1)C(=O)N(Cc1cccc(F)c1)C2=O          5.07

Please examine the following record next.
(Q) GET /values?readout=pIC50&system=α1G T-type Ca2+ currents (Homo sapiens, UniProt O43497)&item= CC1CCCCN1CCCNC(=O)c1ccc2c(c1)C(=O)N(Cc1ccccc1Cl)C2=O (stereo not shown)
(A) 5.82
